Target under test: Siglec-2 (human CD22) (Homo sapiens, UniProt P20273)
Sequence (P20273 20-138 limits assumed): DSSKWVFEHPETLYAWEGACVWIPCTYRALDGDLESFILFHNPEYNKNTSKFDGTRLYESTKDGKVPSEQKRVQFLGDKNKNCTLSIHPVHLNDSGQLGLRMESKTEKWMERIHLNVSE
Protocol: Hapten inhibition assay, Siglec-2 (human CD22)
Format: binding
Test settings: unit inferred
Readout type: IC50 (µM)

For orientation, consider the following solved cases.
• COC1(C(=O)O)CC(O)C(NC(C)=O)C(C(O)C(O)CNC(=O)c2ccc3ccccc3n2)O1 (centres unmarked) = 41
• CO[C@]1(C(=O)O)C[C@H](O)[C@@H](NC(C)=O)[C@H]([C@H](O)[C@H](O)CNC(=O)c2ccc(NC(C)=O)cc2)O1 = 580

(a) CO[C@]1(C(=O)O)C[C@H](O)[C@@H](NC(C)=O)[C@H]([C@H](O)[C@H](O)CNC(=O)c2cc(O)cc(O)c2)O1
(b) CS[C@]1(C(=O)O)C[C@H](O)[C@@H](NC(C)=O)[C@H]([C@H](O)[C@H](O)CO)O1 [Methylthio-α-Neu5Ac]
(c) CO[C@]1(C(=O)O)C[C@H](O)[C@@H](NC(C)=O)[C@H]([C@H](O)[C@H](O)CNC(=O)c2ccccc2)O1
Ask: Order these by IC50, descending, and give the full ranking. Order the labels as requested and give them as your answer.
Reply: b, c, a
(b: 1370 µM, c: 290 µM, a: 73 µM)

* * *

Target under test: Siglec-1 (sialoadhesin) (Mus musculus)
Protocol: Hapten inhibition assay, Siglec-1 (sialoadhesin)
Format: binding
Test settings: quotient IC50 reference compound / IC50 compound
Readout type: Siglec-1 (sialoadhesin) rIP

• CCC(=O)NC1C(O)CC(OCc2ccccc2)(C(=O)O)OC1C(O)C(O)CO (centres unmarked) = 3.4

(A) CO[C@]1(C(=O)O)C[C@H](O)[C@@H](NC(C)=O)[C@H]([C@H](O)[C@H](O)CNC(=O)c2cccnc2)O1
(B) CO[C@]1(C(=O)O)C[C@H](O)[C@@H](NC(C)=O)[C@H]([C@H](O)[C@H](O)CNC(=O)C2CCCCC2)O1
Ask: Given A and B , report the one with the higher recorded Siglec-1 (sialoadhesin) rIP. Record your answer as the label of the chosen record.
Reply: A
(A: 0.5, B: 0.2)

(1) CCCCCC(=O)NCC(O)C(O)C1OC(OC)(C(=O)O)CC(O)C1NC(C)=O (centres unmarked)
(2) COC1(C(=O)O)CC(O)C(NC(C)=O)C(C(O)C(O)CNC(=O)c2c(F)c(F)c(F)c(F)c2F)O1 (centres unmarked)
Ask: Given the listed items, does 1 or 2 have the lesser reported Siglec-1 (sialoadhesin) rIP? Record your answer as the label of the chosen record.
Reply: 2
(2: 0.3, 1: 0.7)

(I) CS[C@]1(C(=O)O)C[C@H](O)[C@@H](NC(C)=O)[C@H]([C@H](O)[C@H](O)CO)O1
(II) CC(=O)N[C@H]1[C@H]([C@H](O)[C@H](O)CO)O[C@@](SCc2ccccc2)(C(=O)O)C[C@@H]1O
Ask: Given the listed items, does I or II have the lesser reported Siglec-1 (sialoadhesin) rIP? Record your answer as the label of the chosen record.
Reply: I

* * *

Target under test: Siglec-1 (sialoadhesin) (Mus musculus)
Protocol: Hapten inhibition assay, Siglec-1 (sialoadhesin)
Format: binding
Test settings: unit inferred
Readout type: IC50 (µM)

For orientation, consider the following solved cases.
• CO[C@]1(C(=O)O)C[C@H](O)[C@@H](NC(C)=O)[C@H]([C@H](O)[C@H](O)CNC(=O)c2ccc([N+](=O)[O-])cc2[N+](=O)[O-])O1 = 733
• COC1(C(=O)O)CC(O)C(NC(C)=O)C(C(O)C(O)CNS(=O)(=O)c2cccc3c(N(C)C)cccc23)O1 (centres unmarked) = 260
• COC1(C(=O)O)CC(O)C(NC(C)=O)C(C(O)C(O)CNC(=O)c2c(F)c(F)c(F)c(F)c2F)O1 (centres unmarked) = 7000

(I) CO[C@]1(C(=O)O)C[C@H](O)[C@@H](NC(C)=O)[C@H]([C@H](O)[C@H](O)CNC(=O)Cc2ccc3ccccc3c2)O1
(II) COC1(C(=O)O)CC(O)C(NC(C)=O)C(C(O)C(O)CNC(=O)c2cccc3cc4ccccc4cc23)O1 (centres unmarked)
(III) CO[C@]1(C(=O)O)C[C@H](O)[C@@H](NC(C)=O)[C@H]([C@H](O)[C@H](O)CNC(C)=O)O1
(IV) COC1(C(=O)O)CC(O)C(NC(C)=O)C(C(O)C(O)CNC(=O)c2ccc3ccccc3c2)O1 (centres unmarked)
(V) CO[C@]1(C(=O)O)C[C@H](O)[C@@H](NC(C)=O)[C@H]([C@H](O)[C@H](O)CNC(=O)CN)O1
Ask: Order the entries by their reported IC50, beginning at the minimum. Order the labels as requested and give them as your answer.
Reply: IV, II, I, III, V

* * *

# maps each entry to its Siglec-2 (human CD22) rIP
Target under test: Siglec-2 (human CD22) (Homo sapiens)
Protocol: Hapten inhibition assay, Siglec-2 (human CD22)
Format: binding
Test settings: quotient IC50 reference compound / IC50 compound
Lab note: record the figure alone, no unit after it.

* CO[C@]1(C(=O)O)C[C@H](O)[C@@H](NC(C)=O)[C@H]([C@H](O)[C@H](O)CNC(=O)c2cc(O)cc(O)c2)O1 | 19

Here is the next item to consider.
Ask: Please report the recorded Siglec-2 (human CD22) rIP for CO[C@]1(C(=O)O)C[C@H](O)[C@@H](NC(C)=O)[C@H]([C@H](O)[C@H](O)CNC(=O)c2ccc([N+](=O)[O-])cc2[N+](=O)[O-])O1 .
Reply: 7.7

* * *

Target under test: Siglec-4a (MAG)
Protocol: Hapten inhibition assay, Siglec-4a (MAG)
Test settings: read-out: Siglec-4a (MAG) IC50; unit inferred
pIC50: −log10 of the molar value.
Readout type: pIC50

- CO[C@]1(C(=O)O)C[C@H](O)[C@@H](NC(C)=O)[C@H]([C@H](O)[C@H](O)CNC(=O)c2ccc([N+](=O)[O-])cc2[N+](=O)[O-])O1: 3.69
- COC1(C(=O)O)CC(O)C(NC(C)=O)C(C(O)C(O)CNC(=O)CNC(=O)CN)O1 (stereo not shown): 2.30
- CCOc1c(N[C@H]2[C@H]([C@H](O)[C@H](O)CO)O[C@@](OC)(C(=O)O)C[C@@H]2O)c(=O)c1=O: 2.37
- CC(=O)N[C@H]1[C@H]([C@H](O)[C@H](O)CO)O[C@@](O[C@H]2[C@@H](O)[C@@H](CO)O[C@@H](O[C@H]3[C@H](O)[C@@H](O)C(O)O[C@@H]3CO)[C@@H]2O)(C(=O)O)C[C@@H]1O (stereo partly shown) [2,3-sialyllactose, reference compound]: 2.80

* * *

Target under test: Siglec-1 (sialoadhesin) (Mus musculus, UniProt Q62230)
Sequence (Q62230 20-136 limits assumed): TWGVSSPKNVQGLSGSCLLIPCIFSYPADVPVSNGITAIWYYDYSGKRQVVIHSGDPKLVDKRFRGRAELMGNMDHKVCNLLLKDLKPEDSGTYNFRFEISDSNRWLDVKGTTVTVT
Protocol: Hapten inhibition assay, Siglec-1 (sialoadhesin)
Assay type: binding
Test settings: quotient IC50 reference compound / IC50 compound
Readout type: Siglec-1 (sialoadhesin) rIP

For orientation, consider the following solved cases.
- CCCC(=O)N[C@H]1[C@H]([C@H](O)[C@H](O)CO)O[C@@](OCc2ccccc2)(C(=O)O)C[C@@H]1O: 2.7
- CO[C@]1(C(=O)O)C[C@H](O)[C@@H](NC(C)=O)[C@H]([C@H](O)[C@H](O)CNC(=O)CN)O1: 0.3
- COC1(C(=O)O)CC(O)C(NC(C)=O)C(C(O)C(O)CNC(=O)c2cccc3cc4ccccc4cc23)O1 (stereo not shown): 0.5

(P) COC1(C(=O)O)CC(O)C(NC(C)=O)C(C(O)C(O)CNC(=O)c2cccc(Oc3ccccc3)c2)O1 (stereo not shown)
(Q) CCOc1c(NC[C@@H](O)[C@@H](O)[C@@H]2O[C@@](OC)(C(=O)O)C[C@H](O)[C@H]2NC(C)=O)c(=O)c1=O
(R) CO[C@]1(C(=O)O)C[C@H](O)[C@@H](NC(C)=O)[C@H]([C@H](O)[C@H](O)CNC(=O)Cc2ccc(-c3ccccc3)cc2)O1
(S) CO[C@]1(C(=O)O)C[C@H](O)[C@@H](NC(C)=O)[C@H]([C@H](O)[C@H](O)CNC(=O)c2ccc(NC(C)=O)cc2)O1
Ask: Order the entries by their reported Siglec-1 (sialoadhesin) rIP, beginning at the minimum. Order the labels as requested and give them as your answer.
Reply: Q, R, P, S
(Q: 0.2, R: 0.3, P: 1.5, S: 3.0)

* * *

Target under test: Siglec-1 (sialoadhesin) (Mus musculus, UniProt Q62230)
Protocol: Hapten inhibition assay, Siglec-1 (sialoadhesin)
Format: binding
Test settings: unit inferred
pIC50: −log10 of the molar value.
Readout type: pIC50

For orientation, consider the following solved cases.
- CC(=O)N[C@H]1[C@H]([C@H](O)[C@H](O)CO)O[C@@](SCc2ccccc2)(C(=O)O)C[C@@H]1O: 3.55
- CO[C@]1(C(=O)O)C[C@H](O)[C@@H](NC(C)=O)[C@H]([C@H](O)[C@H](O)CS(C)(=O)=O)O1: 2.70
- COC1(C(=O)O)CC(O)C(NC(C)=O)C(C(O)C(O)CNC(=O)c2cccc(Oc3ccccc3)c2)O1 (stereo not drawn): 3.27
- CC(=O)N[C@H]1[C@H]([C@H](O)[C@H](O)CO)O[C@@](O[C@H]2[C@@H](O)[C@@H](CO)O[C@@H](O[C@H]3[C@H](O)[C@@H](O)C(O)O[C@@H]3CO)[C@@H]2O)(C(=O)O)C[C@@H]1O (stereo partly drawn) [2,3-sialyllactose, reference compound]: 3.41
- COC(=O)C1(OC)CC(O)C(NC(=O)CF)C(C(O)C(O)CO)O1 (stereo not drawn): 3.20

(a) CO[C@]1(C(=O)O)C[C@H](O)[C@@H](NC(C)=O)[C@H]([C@H](O)[C@H](O)CNC(=O)c2ccccc2)O1
(b) CO[C@]1(C(=O)O)C[C@H](O)[C@@H](NC(C)=O)[C@H]([C@H](O)[C@H](O)CNC(=O)Cc2ccc(-c3ccccc3)cc2)O1
Ask: Given the listed items, does a or b have the lesser reported pIC50? Record your answer as the label of the chosen record.
Reply: b
